Recorded MIC values for a group of compounds are listed next.
Tested on: Aspergillus niger
Test: Antifungal activity against Aspergillus niger assessed as growth inhibition after 24 hr by NCCLS broth microdilution method
Assay type: functional

COMPOUND	MIC
COc1ccc(-c2nn(-c3ccccc3)cc2C2CC(c3ccccc3)=NN2C(=O)c2ccncc2)cc1 (racemic)	50 µg/mL
Cc1ccc(-c2nn(-c3ccccc3)cc2C2CC(c3ccccc3)=NN2C(=O)c2ccncc2)cc1 (racemic)	100 µg/mL
O=C(c1ccncc1)N1N=C(c2ccccc2)CC1c1cn(-c2ccccc2)nc1-c1ccccc1 (racemic)	100 µg/mL

# MIC of COc1ccccc1-c1nn(-c2ccccc2)cc1C1CC(c2ccccc2)=NN1C(=O)c1ccncc1 (racemic) = 50 µg/mL

For record OC(Cn1cncn1)(Cn1cncn1)c1ccc(F)cc1F the listed MIC is 12.5 µg/mL

Summary for this compound, O=C(c1ccncc1)N1N=C(c2ccccc2)CC1c1cn(-c2ccccc2)nc1-c1ccc(Cl)cc1 (racemic) : MIC is > 200 µg/mL

The compound listed as O=C(c1ccncc1)N1N=C(c2ccccc2)CC1c1cn(-c2ccccc2)nc1-c1ccc(Br)cc1 (racemic) has a reported MIC of > 200 µg/mL

What the record says about O=C(c1ccncc1)N1N=C(c2ccccc2)CC1c1cn(-c2ccccc2)nc1-c1ccc(F)cc1 (racemic) : MIC is 200 µg/mL

# credit: ChEMBL document CHEMBL3045725
